- Experiment Notes: in vivo
- Condition Set: mouse, iv
Metric Name: LD50
Reply with the number and its unit after it.

// query Read off the recorded LD50 for CC1COc2c(N3CCN(C)CC3)c(F)cc3c(=O)c(C(=O)O)cn1c23 (racemic) [Racemic Ofloxacin, reference compound]
// result 203 mg/kg
